# System: Erythrocyte
# EXPERIMENT_DESCRIPTION: Hemolytic activity against mouse RBC measured after 1 hrs
# Type: toxicity, cell-based
Square brackets hold non-standard residues; d marks the D form. Peptide text beside a SMILES is read from it. ξ: configuration not given here. Ile(3ξ) = CCC(C)[C@H](N)C(=O)O
Parameter MHC10: see the listing below.

Observe how each entry below is paired with its result.
CC[C@H](C)[C@H](NC(=O)[C@@H]1CCCN1C(=O)[C@H](CC(C)C)NC(=O)[C@@H](N)Cc1ccccc1)C(=O)N[C@@H](CCC(=O)O)C(=O)N[C@@H](C)C(=O)N[C@@H](CCCCN)C(=O)N[C@@H](CC(C)C)C(=O)N[C@@H](CC(C)C)C(=O)N[C@@H](CO)C(=O)NCC(=O)N[C@@H](CC(C)C)C(=O)N[C@@H](CC(C)C)C(N)=O (H-FLPIEAKLLSGLL-NH2) | > 256 µM
CCC(C)[C@H](NC(=O)[C@@H]1CCCN1C(=O)[C@H](CC(C)C)NC(=O)[C@@H](N)Cc1ccccc1)C(=O)N[C@H](C(=O)N[C@@H](C)C(=O)N[C@@H](CCCCN)C(=O)N[C@@H](CC(C)C)C(=O)N[C@@H](CC(C)C)C(=O)N[C@@H](CO)C(=O)N[C@@H](CCCCN)C(=O)N[C@@H](CC(C)C)C(=O)N[C@@H](CC(C)C)C(N)=O)C(C)C (stereo partly drawn) (H-FLP[Ile(3ξ)]VAKLLSKLL-NH2) | 17.97 µM

// switching to the query compound
# input compound: CC[C@H](C)[C@H](NC(=O)[C@@H]1CCCN1C(=O)[C@H](CC(C)C)NC(=O)[C@@H](N)Cc1ccccc1)C(=O)N[C@H](C(=O)N[C@@H](C)C(=O)N[C@@H](CCCCN)C(=O)N[C@@H](CC(C)C)C(=O)N[C@@H](CC(C)C)C(=O)N[C@@H](CO)C(=O)NCC(=O)N[C@@H](CCC(=O)O)C(=O)N[C@@H](CC(C)C)C(N)=O)C(C)C (H-FLPIVAKLLSGEL-NH2) ; wanted: its MHC10
> 256 µM
